Target: T1, human pro-myostatin (human, UniProt O14793 24-375, biotinylated (in the SPR assay))
T1 construct: Disulfide-linked homodimer; also called proGDF8 (human)
Test: Fab KD, summary Table 11; method and antigen not stated there
Reported Kd by item:
MEASUREMENT_NAME: Kd (nM)

>>> obs_value("Ab133 Fab (Fab, V domains shown, Fab of Ab133) VH: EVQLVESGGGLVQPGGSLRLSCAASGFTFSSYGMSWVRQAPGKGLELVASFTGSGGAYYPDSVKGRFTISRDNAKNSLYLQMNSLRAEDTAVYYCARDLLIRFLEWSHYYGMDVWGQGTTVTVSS VL: DIVMTQSPLSLPVTPGEPASISCRSSQSLLHSSGHNFLHWYLQKPGQSPQLLIYEVSNRVSGVPDRFSGSGSGTDFTLKISRVEAEDVGVYYCQQQTQYPGTFGGGTKVEIK")
23
>>> obs_value("Fab fragment of Ab109 (Fab, V domains shown, Fab of Ab109 (molecular weight 49.25 kDa); also called Ab109 Fab) VH: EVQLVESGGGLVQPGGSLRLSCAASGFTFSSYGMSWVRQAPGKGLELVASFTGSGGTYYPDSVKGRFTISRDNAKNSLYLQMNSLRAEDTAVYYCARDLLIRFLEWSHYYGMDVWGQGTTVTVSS VL: DIVMTQSPLSLPVTPGEPASISCRSSQSLLHSSGHNFLHWYLQKPGQSPQLLIYEVSNRVSGVPDRFSGSGSGTDFTLKISRVEAEDVGVYYCMQQTQYPPTFGGGTKVEIK")
39.5
>>> obs_value("Ab130 Fab (Fab, V domains shown, Fab of Ab130) VH: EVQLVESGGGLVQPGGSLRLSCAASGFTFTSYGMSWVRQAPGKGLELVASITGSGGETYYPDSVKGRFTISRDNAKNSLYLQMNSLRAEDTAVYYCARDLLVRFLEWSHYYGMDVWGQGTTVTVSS VL: DIVMTQSPLSLPVTPGEPASISCRSSQSLLHSSGHNFLHWYLQKPGQSPQLLIYETSNRAPGIPDRFSGSGSGTDFTLKISRVEAEDVGVYYCQQATQFPRPFGGGTKVEIK")
53.8
>>> obs_value("Ab112 Fab (Fab, V domains shown, Fab of Ab112; also called Ab112 Fab fragment) VH: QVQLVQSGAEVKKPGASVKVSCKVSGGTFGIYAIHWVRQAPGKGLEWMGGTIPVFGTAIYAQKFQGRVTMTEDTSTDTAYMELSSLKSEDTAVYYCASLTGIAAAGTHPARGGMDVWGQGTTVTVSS VL: DIQMTQSPSSVSASVGDRVTITCRASPSISSYLAWYQQKPGKAPKLLIYAASRLQSGVPSRFSGSGSGTDFTLTISSLQPEDFANYYCQEYLSFPLTFGGGTKVEIK")
6.19
